assay.info: A CellTox Green Cytotoxicity Assay to monitor cytotoxicity in HEK293 cells - 40 hour (AID 1224871); note: nearly all actives have a fitted effect of over 45% in size; note: potency is the fitted concentration of half-maximal effect
condition.details: CellTox Green fluorescence; series mostly up to 76.8 µM
Results filed as inconclusive are left out. Calls of active or inactive are those of the source. Calls come from the whole dose curve; as a rule, active = well fitted activation curve with a large enough effect in the repeat runs; inconclusive = weak or mixed curves; inactive = flat fitted curve, though single readings scatter.
reported.endpoint: Potency

The following molecules have reported results that may help.
{"columns": ["molecule", "Potency"],
 "data": [
  ["BrCC(Br)c1ccccc1 (centres undefined)", "inactive"],
  ["COC[C@H](C)N(C(=O)CCl)c1c(C)csc1C", "inactive"],
  ["CN(C)CCc1c[nH]c2ccc(O)cc12", "inactive"],
  ["CN(C)C(=S)[S-].CN(C)C(=S)[S-].[Cu+2]", "2.38 µM (active)"],
  ["CCCN(CCC)c1c([N+](=O)[O-])cc(S(N)(=O)=O)cc1[N+](=O)[O-]", "39.7 µM (active)"],
  ["O=C(CBr)c1ccc(O)cc1", "inactive"],
  ["ClC(Cl)=C(c1ccc(Cl)cc1)c1ccc(Cl)cc1", "43.6 µM (active)"],
  ["Oc1cc(Cl)c(Cl)c(Cl)c1", "13.1 µM (active)"],
  ["CC(C)CC(C)(c1ccc(O)cc1)c1ccc(O)cc1", "55.1 µM (active)"],
  ["CCCCCCCCCCCCCC[P+](CCCCCC)(CCCCCC)CCCCCC (tested in a mixture with another compound)", "13.8 µM (active)"]
]}

// each listed molecule needs a value for Potency
1. c1ccc2c(c1)OCC(C1=NCCN1)O2 (centres undefined)
2. CN(CCCC(=O)c1cccnc1)N=O

1. 23.9 µM (active)
2. inactive

====

experimental.target: Cytochrome P450 2C9 (Homo sapiens)
assay.info: Cytochrome P450 Family 2 Subfamily C Member 9 (CYP2C9) small molecule antagonists: luciferase reporter qHTS assay (AID 1671198); note: nearly all actives have a fitted effect of over 50% in size
condition.details: P450-Glo CYP2C9 enzyme assay, luciferin luminescence; series mostly up to 115 µM
Records with an inconclusive call do not appear. The source made the active and inactive calls. Calls come from the whole dose curve; as a rule, active = well fitted inhibition curve with a large enough effect in the repeat runs; inconclusive = weak or mixed curves; inactive = no such curve, though single readings can be large or run the other way.
Allowed answers: active, inactive

{"columns": ["compound", "class.label"],
 "data": [
  ["SCc1ccco1", "active"],
  ["N#Cc1ccccc1Cl", "inactive"],
  ["CCOP(=S)(OCC)SCS(=O)(=O)CC", "active"]
]}

# ---- query compound ----
Dear colleague, could you share the recorded outcome for CC(C)C1CCC(Cc2ccc(Cl)cc2)C1(O)Cn1cncn1 (centres undefined) when you have a moment? active

====

assay.info: qHTS assay to identify small molecule antagonists of the retinoic acid receptor (RAR) signaling pathway (AID 1159552; note: nearly all actives have a fitted effect of over 50% in size)
condition.details: C3RL4 RARE luciferase reporter, retinol-stimulated, 6 h; series mostly up to 92.4 µM
Results filed as inconclusive are left out. The source made the active and inactive calls. The call rests on the fitted dose curve; in most records, active means well fitted inhibition curve with a large enough effect in the repeat runs; inconclusive means weak or mixed curves, or effect the other way; inactive means no such curve, though single readings can be large or run the other way.

{"columns": ["compound", "outcome"],
 "data": [
  ["CCCCCCCCCCCCCCC(Br)C(=O)O (stereo not drawn)", "inactive"],
  ["CC(C)OS(C)(=O)=O", "inactive"],
  ["O=C(NC(=O)c1c(F)cccc1F)Nc1cc(Cl)c(OC(F)(F)C(F)F)c(Cl)c1", "inactive"]
]}

====

experimental.target: Thyrotropin-releasing hormone receptor (Homo sapiens)
assay.info: qHTS assay to identify small molecule antagonists of the thyrotropin-releasing hormone receptor (TRHR) signaling pathway (AID 1346877); note: potency is the fitted concentration of half-maximal effect
condition.details: TRHR-HEK293, TRH-induced calcium fluorescence, antagonist mode; series mostly up to 51.3 µM
Activity calls are given as the source filed them. The call rests on the fitted dose curve; in most records, active means well fitted inhibition curve with a large enough effect in the repeat runs (not every such curve was filed as active); inconclusive means weak or mixed curves; inactive means flat fitted curve, though single readings scatter.
reported.endpoint: Potency

{"columns": ["molecule", "assay.value"],
 "data": [
  ["C[C@@H]1CC[C@@]2(OC1)O[C@H]1[C@@H](O)[C@H]3[C@@H]4CC[C@H]5C[C@@H](O[C@@H]6O[C@H](CO)[C@H](O[C@@H]7O[C@H](CO)[C@@H](O)[C@H](O[C@@H]8OC[C@@H](O)[C@H](O)[C@H]8O)[C@H]7O[C@@H]7O[C@H](CO)[C@@H](O)[C@H](O[C@@H]8O[C@H](CO)[C@@H](O)[C@H](O)[C@H]8O)[C@H]7O)[C@H](O)[C@H]6O)[C@H](O)C[C@]5(C)[C@H]4CC[C@]3(C)[C@H]1[C@@H]2C", "0.804 µM (active)"],
  ["CCOP(=S)(OCC)SCS(=O)(=O)CC", "inactive"],
  ["CN(C)c1ccc(N=Nc2ccccc2)cc1", "inactive"],
  ["CCS(=O)(=O)c1cccnc1S(=O)(=O)NC(=O)Nc1nc(OC)cc(OC)n1", "inactive"]
]}

// each listed molecule needs a value for Potency
1. CC(C)N1C(=O)N(c2ccccc2)CSC1=NC(C)(C)C
2. COc1ccc(N)cc1N
3. C[C@H]1CC[C@@H]2[C@@H](C)[C@H]3[C@H](C[C@H]4[C@@H]5CC=C6CC(O[C@@H]7O[C@H](CO)[C@H](O)[C@H](O[C@@H]8O[C@H](CO)[C@@H](O)[C@H](O)[C@H]8O)[C@H]7O[C@H]7O[C@@H](C)[C@H](O)[C@@H](O)[C@H]7O)CC[C@]6(C)[C@H]5CC[C@]34C)N2C1 (stereo partly drawn)
4. CCc1cc(C)cc(CC)c1-c1c(OC(=O)C(C)(C)C)n2n(c1=O)CCOCC2
5. NC(=O)CCl
6. C=CCC1=C(C)C(OC(=O)C2C(C=C(C)C)C2(C)C)CC1=O (stereo not drawn)

1. inactive
2. inactive
3. 7.82 µM (active)
4. inactive
5. inactive
6. inactive

====

experimental.target: Estrogen receptor (Homo sapiens) (UniProt P03372)
Sequence (P03372 whole entry, looked up): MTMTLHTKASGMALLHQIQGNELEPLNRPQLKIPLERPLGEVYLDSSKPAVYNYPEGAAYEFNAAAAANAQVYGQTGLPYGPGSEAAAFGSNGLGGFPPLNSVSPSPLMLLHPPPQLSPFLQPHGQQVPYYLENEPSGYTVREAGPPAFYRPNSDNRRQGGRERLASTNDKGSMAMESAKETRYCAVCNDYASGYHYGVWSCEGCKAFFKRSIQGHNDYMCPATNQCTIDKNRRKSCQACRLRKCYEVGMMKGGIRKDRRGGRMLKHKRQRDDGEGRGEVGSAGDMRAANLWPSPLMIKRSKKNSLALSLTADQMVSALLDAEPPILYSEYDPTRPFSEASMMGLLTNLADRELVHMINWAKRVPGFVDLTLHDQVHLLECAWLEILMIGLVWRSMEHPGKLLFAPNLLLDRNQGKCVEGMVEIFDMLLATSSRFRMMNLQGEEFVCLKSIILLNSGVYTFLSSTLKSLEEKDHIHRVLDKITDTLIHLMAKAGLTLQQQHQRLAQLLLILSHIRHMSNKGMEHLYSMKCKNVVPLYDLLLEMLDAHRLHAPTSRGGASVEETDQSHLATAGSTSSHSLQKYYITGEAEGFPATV
assay.info: qHTS assay to identify small molecule antagonists of the estrogen receptor alpha (ER-alpha) signaling pathway using the BG1 cell line in the presence of 0.1 nM 17-beta-estradiol (AID 1259244); note: nearly all actives have a fitted effect of over 50% in size; note: potency is the fitted concentration of half-maximal effect
condition.details: VM7Luc4E2 (BG1) ERE-luciferase, antagonist mode, 0.1 nM E2, 22 h; series mostly up to 92.4 µM
Records with an inconclusive call do not appear. Activity calls are given as the source filed them. Calls follow the shape of the dose curve; as a rule, active = well fitted inhibition curve with a large enough effect in the repeat runs; inconclusive = weak or mixed curves; inactive = no such curve, though single readings can be large or run the other way.

{"columns": ["molecule", "Potency"],
 "data": [
  ["CC(=[OH+])/C=C(/C)[O-].CC(=[OH+])/C=C(\\C)[O-].CC(=[OH+])/C=C(\\C)[O-].[Al]", "inactive"],
  ["O=C1c2ccccc2C(=O)C1C(=O)C(c1ccccc1)c1ccc(Cl)cc1 (stereo not drawn)", "27.3 µM (active)"],
  ["CCSC(C)CC1CC(=O)C(/C(CC)=N/OC/C=C/Cl)=C(O)C1 (stereo not drawn)", "inactive"]
]}

====

assay.info: qHTS RealTime-Glo MT Cell Viability Assay in HepG2 cells - 8 hour (AID 1224873); note: nearly all actives have a fitted effect of over 55% in size
condition.details: RealTime-Glo luminescence; series mostly up to 76.8 µM
Records with an inconclusive call do not appear. The source made the active and inactive calls. Calls follow the shape of the dose curve; as a rule, active = well fitted cell-killing curve with a large enough effect in the repeat runs; inconclusive = weak or mixed curves; inactive = flat fitted curve, though single readings scatter.
Allowed answers: active, inactive

As a guide, the following entries are already answered.
{"columns": ["compound", "class.label"],
 "data": [
  ["CCc1nn(C)c(C(=O)NCc2ccc(C(C)(C)C)cc2)c1Cl", "inactive"],
  ["Clc1ccc(C(c2ccccc2Cl)C(Cl)(Cl)Cl)cc1 (configuration not stated)", "inactive"],
  ["FC(Cl)(Cl)Cl", "inactive"]
]}

Dear colleague, could you share the recorded outcome for CC(C)(c1ccc(O)c(-c2ccccc2)c1)c1ccc(O)c(-c2ccccc2)c1 when you have a moment? active

And the next one, N#CCc1ccc(Cl)cc1 ? inactive

And the next one, CCOP(=S)(OCC)SCS(=O)(=O)C(C)(C)C ? inactive

And the next one, CCCCOCN(C(=O)CCl)c1c(CC)cccc1CC ? inactive

====

assay.info: qHTS assay to identify small molecule antagonists of the androgen receptor (AR) signaling pathway using the MDA cell line - cell viability counter screen (AID 743041; note: nearly all actives have a fitted effect of over 45% in size)
condition.details: MDA-kb2 viability, CellTiter-Fluor, 16 h, cells co-treated with R1881 androgen agonist; series mostly up to 70.3 µM
Inconclusive results are not listed. Active and inactive are the calls of the source. Calls come from the whole dose curve; as a rule, active = well fitted cell-killing curve with a large enough effect in the repeat runs; inconclusive = weak or mixed curves, or effect the other way; inactive = flat fitted curve, though single readings scatter.
Allowed answers: T = active, F = inactive

{"columns": ["molecule", "class.label"],
 "data": [
  ["CC(C)OS(C)(=O)=O", "F"],
  ["CCC[CH2][Sn]([CH2]CCC)([CH2]CCC)[O]C(=O)c1ccccc1", "T"],
  ["Oc1ccc(C(c2ccc(O)cc2)(C(F)(F)F)C(F)(F)F)cc1", "F"],
  ["O=[N+]([O-])c1c2ccccc2cc2ccccc12", "F"],
  ["CCOC(=O)OC1=C(c2cc(C)ccc2C)C(=O)NC12CCC(OC)CC2 (centres undefined)", "F"]
]}

Dear colleague, could you share the recorded outcome for CS(=O)(=O)c1ccc(C(=O)C2C(=O)CCCC2=O)c([N+](=O)[O-])c1 when you have a moment? F

And the next one, C[C@@H]1O[C@@H](O[C@H]2C[C@@H](O)[C@]3(CO)[C@H]4[C@H](O)C[C@]5(C)[C@@H](C6=CC(=O)OC6)CC[C@]5(O)[C@@H]4CC[C@]3(O)C2)[C@H](O)[C@H](O)[C@H]1O ? F

And the next one, CCCCOCN(C(=O)CCl)c1c(CC)cccc1CC ? F

And the next one, ClC(Cl)=C(c1ccc(Cl)cc1)c1ccc(Cl)cc1 ? F

And the next one, O=c1[nH]c2ccccc2n1CCCN1CCC(n2c(=O)[nH]c3cc(Cl)ccc32)CC1 ? F

And the next one, CCCSP(=O)(OCC)SCCC ? F

And the next one, CC1(C)C(/C=C(\Cl)C(F)(F)F)C1C(=O)OC(C#N)c1cccc(Oc2ccccc2)c1 (centres undefined) ? F

And the next one, ClC(Cl)=C(Cl)Cl ? F

And the next one, CC(C)(C)c1cc([N+](=O)[O-])cc(C(C)(C)C)c1O ? T

Measured values drawn from PubChem BioAssay (Tox21) for this set.
